B1: Receptor-interacting serine/threonine-protein kinase 2, residues 438 to 518; numbered along this chain, O43353 (parent)
chain: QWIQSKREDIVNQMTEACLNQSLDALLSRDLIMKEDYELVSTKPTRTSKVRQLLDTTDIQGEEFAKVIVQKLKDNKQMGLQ

variants of: B1; assay: abundance fitness (aPCA) (normalised: wild type 0, dead -1); higher = more abundant; growth selection in yeast, the domain comes from the species named; conditions: Homo sapiens

>  <mutation_annotation>
L27N

>  <abundance fitness>
-0.395

$$$$
>  <mutation_annotation>
S48A

>  <abundance fitness>
0.072

$$$$
>  <mutation_annotation>
I32R

>  <abundance fitness>
-0.592

$$$$
>  <mutation_annotation>
L27P

>  <abundance fitness>
-0.328

$$$$
>  <mutation_annotation>
Q52M

>  <abundance fitness>
-0.42

$$$$
>  <mutation_annotation>
V67E

>  <abundance fitness>
-0.294

$$$$
>  <mutation_annotation>
L53K

>  <abundance fitness>
-0.366

$$$$
>  <mutation_annotation>
Q52E

>  <abundance fitness>
-0.512

$$$$
>  <mutation_annotation>
T56A

>  <abundance fitness>
-0.161

$$$$
>  <mutation_annotation>
K71R

>  <abundance fitness>
-0.612

$$$$
>  <mutation_annotation>
R51P

>  <abundance fitness>
-0.501

$$$$
>  <mutation_annotation>
K76S

>  <abundance fitness>
0.032

$$$$
>  <mutation_annotation>
R51D

>  <abundance fitness>
-0.517

$$$$
>  <mutation_annotation>
E62P

>  <abundance fitness>
-0.493

$$$$
>  <mutation_annotation>
A65L

>  <abundance fitness>
-0.949

$$$$
>  <mutation_annotation>
S28D

>  <abundance fitness>
-0.36

$$$$
>  <mutation_annotation>
K49W

>  <abundance fitness>
-0.722

$$$$
>  <mutation_annotation>
E63D

>  <abundance fitness>
-0.3

$$$$
>  <mutation_annotation>
Q81H

>  <abundance fitness>
-0.419

$$$$
>  <mutation_annotation>
P44R

>  <abundance fitness>
-0.265

$$$$
>  <mutation_annotation>
D36G

>  <abundance fitness>
-0.551

$$$$
>  <mutation_annotation>
D74M

>  <abundance fitness>
-0.399

$$$$
>  <mutation_annotation>
Y37V

>  <abundance fitness>
-0.413

$$$$
>  <mutation_annotation>
D30N

>  <abundance fitness>
-0.401

$$$$
>  <mutation_annotation>
K66E

>  <abundance fitness>
0.096

$$$$
>  <mutation_annotation>
K43S

>  <abundance fitness>
-0.46

$$$$
>  <mutation_annotation>
K34D

>  <abundance fitness>
-0.448

$$$$
>  <mutation_annotation>
R46W

>  <abundance fitness>
-0.796

$$$$
>  <mutation_annotation>
T56V

>  <abundance fitness>
0.108

$$$$
>  <mutation_annotation>
A65C

>  <abundance fitness>
-0.624

$$$$
>  <mutation_annotation>
Y37C

>  <abundance fitness>
-0.547

$$$$
